Origin of measurements: patent USRE49687E1

- Target Desc: menin-MLL interaction (Homo sapiens, UniProt O00255)
- Sequence (O00255 1-610): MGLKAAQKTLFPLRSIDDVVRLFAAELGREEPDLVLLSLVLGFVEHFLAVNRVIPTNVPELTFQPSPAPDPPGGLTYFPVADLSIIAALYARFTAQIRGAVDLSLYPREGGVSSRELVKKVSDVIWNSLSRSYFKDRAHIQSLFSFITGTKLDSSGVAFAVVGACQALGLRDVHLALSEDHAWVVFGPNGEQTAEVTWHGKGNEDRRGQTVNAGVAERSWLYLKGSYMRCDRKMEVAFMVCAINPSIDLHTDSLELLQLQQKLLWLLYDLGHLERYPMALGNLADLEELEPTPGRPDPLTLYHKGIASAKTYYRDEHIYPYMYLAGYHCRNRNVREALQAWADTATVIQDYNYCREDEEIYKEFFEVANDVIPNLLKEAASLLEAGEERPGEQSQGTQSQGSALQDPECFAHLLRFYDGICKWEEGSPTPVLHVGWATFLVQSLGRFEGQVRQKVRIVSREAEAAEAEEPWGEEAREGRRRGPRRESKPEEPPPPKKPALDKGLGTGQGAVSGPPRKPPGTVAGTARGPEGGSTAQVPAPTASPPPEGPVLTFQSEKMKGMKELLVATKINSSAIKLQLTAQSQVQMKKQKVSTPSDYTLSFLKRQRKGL
- Test Protocol: Fluorescence polarization (FP) competition assay of the menin-MLL interaction
- Assay Setup: inhibition of the menin-MLL interaction; read-out: IC50 values for Table 1 inhibitors of menin
Measure Name: IC50

C=CS(=O)(=O)Nc1ccc(CCn2c(C#N)cc3c(C)c(CN4CCC(Nc5ncnc6sc(CC(F)(F)F)cc56)CC4)ccc32)cc1
< 30 nM

Param item = CCC(=O)N1CCC(C(O)Cn2c(C#N)cc3c(C)c(CN4CCC(Nc5ncnc6sc(CC(F)(F)F)cc56)CC4)ccc32)CC1 (stereo not drawn) ; retrieve measured IC50. 100 to 1000 nM

IC50 lookup needed for C=CC(=O)Nc1ccc(CCn2c(C#N)cc3c(C)c(CN4CCC(Nc5ncnc6sc(CC(F)(F)F)cc56)CC4)ccc32)cc1 , thanks. < 30 nM

// lookup IC50 for Cc1c(CN2CCC(Nc3ncnc4sc(CC(F)(F)F)cc34)CC2)ccc2c1cc(C#N)n2CCP(C)(C)=O 100 to 1000 nM

Recorded IC50 for C=CC(=O)N1CCCN(CCn2c(C#N)cc3c(C)c(CN4CCC(Nc5ncnc6sc(CC(F)(F)F)cc56)CC4)ccc32)CC1 , please? < 30 nM

Reported IC50, compound C=CC(=O)N1CCN(CCn2c(C#N)cc3cc(CN4CCC(Nc5ccnc6sc(CC(F)(F)F)cc56)CC4)ccc32)CC1 : ____ 30 to 100 nM

Which IC50 value is on record for CCC(=O)Nc1ccc(CCn2c(C#N)cc3c(C)c(CN4CCC(Nc5ncnc6sc(CC(F)(F)F)cc56)CC4)ccc32)cn1 ? 100 to 1000 nM

I am curious: what IC50 value has been reported for C=CS(=O)(=O)N1C2CCC1CN(CCn1c(C#N)cc3c(C)c(CN4CCC(Nc5ncnc6sc(CC(F)(F)F)cc56)CC4)ccc31)C2 ? < 30 nM

Endpoint output: IC50 of C=CC(=O)Nc1ccc(CCn2c(C#N)cc3c(C)c(CN4CCC(Nc5ncnc6sc(CC(F)(F)F)cc56)CC4)ccc32)cn1 . Value? < 30 nM

###

Reported IC50 by item:
- Target Desc: menin-MLL interaction (Homo sapiens)
- Test Protocol: Fluorescence polarization (FP) competition assay of the menin-MLL interaction
- Type: binding
- Assay Setup: inhibition of the menin-MLL interaction; read-out: IC50 values for Table 1 inhibitors of menin

Which IC50 is reported for this compound? C=CC(=O)N[C@@H]1CCN(CCn2c(C#N)cc3c(C)c(CN4CCC(Nc5ncnc6sc(CC(F)(F)F)cc56)CC4)ccc32)C1 [Compound 32] < 30 nM

Consider the compound Cc1c(CN2CCC(Nc3ncnc4sc(CC(F)(F)F)cc34)CC2)ccc2c1cc(C#N)n2CC(O)c1cccc(S(C)(=O)=O)c1 (stereo not shown) [Compound 197] and give its measured IC50. 30 to 100 nM

Any idea what IC50 was measured for C=CC(=O)Nc1ccc(C2(Cn3c(C#N)cc4c(C)c(CN5CCC(Nc6ncnc7sc(CC(F)(F)F)cc67)CC5)ccc43)CC2)cn1 [Compound 216] ? 100 to 1000 nM

Tell me the measured IC50 of C=CC(=O)NC1CCC(Cn2c(C#N)cc3c(C)c(CN4CCC(Nc5ncnc6sc(CC(F)(F)F)cc56)CC4)ccc32)C1 (stereo not shown) [Compound 219] , please. 30 to 100 nM

Item under review: CP(C)(=O)c1cc2cc(CN3CCC(Nc4ncnc5sc(CC(F)(F)F)cc45)CC3)ccc2[nH]1 [Compound 205] . Reported IC50? > 1000 nM

Fill blank: measured IC50 of the compound Cc1c(CN2CCC(Nc3ncnc4sc(CC(F)(F)F)cc34)CC2)ccc2c1cc(C#N)n2CCc1ccc(P(C)(C)=O)cc1 [Compound 202] is ____. 30 to 100 nM

Given the entry C=CC(=O)N1C2CCC1CN(CCn1c(C#N)cc3c(C)c(CN4CCC(Nc5ncnc6sc(CC(F)(F)F)cc56)CC4)ccc31)C2 [Compound 24] , report its measured IC50. 30 to 100 nM

// IC50 lookup, key: C=CC(=O)N1CC2(CN(CCn3c(C#N)cc4c(C)c(CN5CCC(Nc6ncnc7sc(CC(F)(F)F)cc67)CC5)ccc43)C2)C1 [Compound 174] 30 to 100 nM

Consider the compound C=CC(=O)N1CCC2(CC1)CN(CCn1c(C#N)cc3c(C)c(CN4CCC(Nc5ncnc6sc(CC(F)(F)F)cc56)CC4)ccc31)C2 [Compound 178] and give its measured IC50. 30 to 100 nM

IC50 for C=CC(=O)Nc1ccc(CCn2c(C#N)cc3c(C)c(CN4CCC(Nc5ncnc6sc(CC(F)(F)F)cc56)CC4)ccc32)cc1P(=O)(CC)CC [Compound 203] ? < 30 nM

###

- Target Desc: menin-MLL interaction (Homo sapiens, UniProt O00255)
- Test Protocol: Fluorescence polarization (FP) competition assay of the menin-MLL interaction
- Assay Setup: inhibition of the menin-MLL interaction; read-out: IC50 values for Table 1 inhibitors of menin
Measure Name: IC50

Reference set, count: 5
CCC(=O)Nc1ccc(C(C)(O)Cn2c(C#N)cc3c(C)c(CN4CCC(Nc5ncnc6sc(CC(F)(F)F)cc56)CC4)ccc32)cn1 (stereo not drawn) [Compound 212]
30 to 100 nM
C=CC(=O)NC1CCN(CCn2c(C#N)cc3c(C)c(CN4CCC(Nc5ncnc6sc(CC(F)(F)F)cc56)CC4)ccc32)C1 (stereo not drawn) [Compound 29]
< 30 nM
C=CC(=O)Nc1ccc([C@@](C)(O)Cn2c(C#N)cc3c(C)c(CN4CCC(Nc5ncnc6sc(CC(F)(F)F)cc56)CC4)ccc32)cc1 [Compound 244]
30 to 100 nM
C=CC(=O)Nc1ccc(C(C)(O)Cn2c(C#N)cc3c(C)c(CN4CCC(Nc5ncnc6sc(CC(F)(F)F)cc56)CC4)ccc32)cn1 (stereo not drawn) [Compound 209]
30 to 100 nM
C[Si](C)(C)CCOCn1c(P(C)(C)=O)cc2cc(CN3CCC(Nc4ncnc5sc(CC(F)(F)F)cc45)CC3)ccc21 [Compound 207]
> 1000 nM

Next item in the queue.
# lookup: IC50 of C/C=C/C(=O)N1CCN(CCn2c(C#N)cc3c(C)c(CN4CCC(Nc5ncnc6sc(CC(F)(F)F)cc56)CC4)ccc32)CC1 [Compound 4] < 30 nM

###

pIC50 values for the compounds below.
- Target Desc: menin-MLL interaction (Homo sapiens, UniProt O00255)
- Test Protocol: Fluorescence polarization (FP) competition assay of the menin-MLL interaction
- Assay Setup: inhibition of the menin-MLL interaction; read-out: IC50 values for Table 1 inhibitors of menin
pIC50: −log10 of the molar value.

[2H]C([2H])=C([2H])C(=O)Nc1ccc(C(O)Cn2c(C#N)cc3c(C)c(CN4CCC(Nc5ncnc6sc(CC(F)(F)F)cc56)CC4)ccc32)cn1 (stereo not drawn)
7.00 to 7.52
Cc1c(CN2CCC(Nc3ncnc4sc(CC(F)(F)F)cc34)CC2)ccc2c1cc(C#N)n2CCc1ccc(N)c(C#N)c1
6.00 to 7.00
C=CS(=O)(=O)N1CC2CC1CN2CCn1c(C#N)cc2c(C)c(CN3CCC(Nc4ncnc5sc(CC(F)(F)F)cc45)CC3)ccc21 (stereo not drawn)
6.00 to 7.00
C=CC(=O)NC1CN(CCn2c(C#N)cc3c(C)c(CN4CCC(Nc5ncnc6sc(CC(F)(F)F)cc56)CC4)ccc32)C1
7.00 to 7.52

What pIC50 value was documented for this compound, CCC(=O)N1CCCN(CCn2c(C#N)cc3c(C)c(CN4CCC(Nc5ncnc6sc(CC(F)(F)F)cc56)CC4)ccc32)CC1 ? 7.00 to 7.52

Look at this compound and give its reported pIC50. C#CC(=O)N1CCN(CCn2c(C#N)cc3c(C)c(CN4CCC(Nc5ncnc6sc(CC(F)(F)F)cc56)CC4)ccc32)CC1 7.00 to 7.52
